B1: CPN1 (parent)
chain: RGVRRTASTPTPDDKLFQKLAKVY

variants of: B1; assay: protein stability index of a GFP-peptide fusion (GPS, HEK-293T) (PSI 1-6); higher = more stable; conditions: c terminus: a fixed tail appended;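 also: lentivirally expressed fusions sorted by FACS into six bins by GFP to DsRed ratio, PSI derived from sequencing read proportions per bin multiplied by bin number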
valueKind: protein stability index
Please reply with the number alone, leaving off any unit.

Examples with answers:
# mut, protein stability index
rows = [
    ("Y24A", 2.51),
    ("L20A", 3.4),
    ("A21S", 2.15),
    ("P10E", 2.81),
    ("T11D", 2.26),
    ("P12I", 1.89),
    ("P10S", 2.09),
    ("Q18S", 2.09),
    ("A7E", 2.05),
    ("D14I", 1.23),
]

Looking up V23C , I see its protein stability index listed as 2.58
